Please respond with reported pKi for every item in the list.
# assay_overview: Inhibition of Bacillus subtilis DNA polymerase 3/azp-12 mutant-mediated dGTP truncated DNA synthesis assessed as inhibition of incorporation of [3H]TMP
Give bare numbers, as −log10 of the molar value.

In [3]: df
Out[3]:
                           smiles_data  test_value
0  Nc1ccc(CNc2cc(=O)[nH]c(=O)[nH]2)cc1        3.81
1            Oc1cc(NCCc2ccccc2)nc(O)n1        4.52

Now take the following compound into account.
Q. Given `Oc1cc(NCc2ccccc2)nc(O)n1` , state its recorded pKi.
A. 5.60
